Reference source: PubChem BioAssay

# System: Lefty1
# testSummary: Lefty1 binders on small-molecule microarrays, primary screen, biochemical, small-molecule microarray, 635/667 nm fluorescence (AID 1139)
# experimentalParameters: small-molecule microarray binding, fluorescence 635/667; higher = more signal
Entry flag: criterion met if composite z-score reaches 0.2; criterion not met if it does not.

Worked cases, answers included:
Dear colleague, could you confirm whether COCCOC(=O)N1C(=O)[C@@]2(c3cc(C#CC4=CCCCC4)ccc31)[C@H](C(=O)Nc1nc3ccccc3s1)[C@H]1C(=O)O[C@H](c3ccccc3)[C@H](c3ccccc3)N1[C@@H]2c1ccccc1OCCO has composite z-score at or above 0.2?
criterion met

What about this compound? CC(C)(C)OC(=O)CC[C@]1(C(=O)NCC(O)CO)COC(c2ccc(OCCCO)cc2)=N1 (stereo not given in full)
criterion not met

What about this compound? O=C1C2C=CC(C(O)C(c3ccccc3)c3ccccc3)N(n3cnnc3)C2C(=O)N1Cc1ccccc1 (stereo not given)
criterion not met

What about this compound? CN(C)C(=O)[C@]1(Cc2ccccc2CN=[N+]=[N-])N=C(c2ccc(OCCCO)cc2)O[C@@H]1c1ccccc1CN=[N+]=[N-]
criterion met

What about this compound? CN1C(=O)C2C=CC(C(O)c3ccccc3)N(Nc3ccccc3)C2C1=O (stereo not given)
criterion not met

What about this compound? C=CC[C@@]1(C(N)=O)N=C(c2ccc(OCCCO)cc2)O[C@@H]1c1ccccc1CN=[N+]=[N-]
criterion not met

# input for lookup
Dear colleague, could you confirm whether O=C(NCC(F)(F)F)[C@@H]1c2ccccc2C(=O)N(C2CCCCC2)[C@H]1c1ccc(CO)cc1 has composite z-score at or above 0.2?
criterion not met

----------
# Test system: XIP peptide (Xip251-270)
# testSummary: small-molecule binders of XIP peptide, primary screen, biochemical, small-molecule microarray, fluorescence 635/667 nm, 0.5 µg/mL protein (AID 1183)
# experimentalParameters: small-molecule microarray binding, fluorescence 635 nm; higher = more signal
observable: composite z-score
Answer as a number with no unit attached.

Could you tell me which composite z-score is on file for CN1C(=O)C2C=CC(C(O)C3CCCCC3)N(Nc3ccc([N+](=O)[O-])cc3[N+](=O)[O-])C2C1=O (configuration not stated) ?
0.487

What about this compound? CCOC1=C2C(CN(S(=O)(=O)c3ccc(C)cc3)C2c2ccc(C)cc2)C2C(=O)N(c3ccccc3)C(=O)C2C1 (configuration not stated)
0.457

What about this compound? COC(=O)[C@@]1(Cc2ccc(OC)cc2)[C@H]2c3cc(C(=O)N4CCCC4)n(Cc4ccccc4)c3C[C@H]2CN1C(=O)c1ccccc1
0.0127

What about this compound? Cc1ccc(C(C)CC(O)C2C=CC3C(=O)N(c4ccccc4)C(=O)C3N2Nc2ccc([N+](=O)[O-])cc2)o1 (configuration not stated)
0.839

Continuing:
Could you tell me which composite z-score is on file for COC(=O)[C@@]1(Cc2ccccc2)[C@H]2c3cc(C(=O)N4CCCC4)n(Cc4cccc5ccccc45)c3C[C@H]2CN1C(=O)c1ccccc1 ?
-0.569

What about this compound? O=C1O[C@H](c2ccccc2)[C@H](c2ccccc2)N2[C@H]1[C@@H](C(=O)Nc1nc3ccccc3s1)[C@]1(C(=O)Nc3ccc(C#CCCO)cc31)[C@H]2c1ccc(OCCO)cc1
0.769

What about this compound? COCCCNC(=O)[C@@]1(Cc2ccccc2)N=C(c2ccc(OCCCO)cc2)O[C@H]1c1ccccc1
0.752
